The measurements presented in this section are drawn from the supplement of paper PMC10567573.

B1: NCK2 (parent)
chain: YTGPSSSGRFAGREWYYGNVTRHQ

# Variants of: B1
# assay notes: protein stability index of a GFP-peptide fusion (GPS, HEK-293T) (PSI 1-6); higher = more stable;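 also: lentivirally expressed fusions sorted by FACS into six bins by GFP to DsRed ratio, PSI derived from sequencing read proportions per bin multiplied by bin number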
# test context: c terminus: a fixed tail appended
recorded endpoint: protein stability index
Please give only the number in your answer, with no unit.

// known answers, use as guide
variant key	protein stability index
Y1F	1.47
V20K	2.2
T21K	1.74
S5T	1.86
Y17Q	1.97
V20S	1.66
R13A	1.61
S7F	1.59

Request: # query: protein stability index of entry "T2W"
Result: 2.35

Request: # query: protein stability index of entry "G8F"
Result: 2.04

Request: # query: protein stability index of entry "R9T"
Result: 1.44

Request: # query: protein stability index of entry "Y17S"
Result: 2.44

Request: # query: protein stability index of entry "G18T"
Result: 1.04

Request: # query: protein stability index of entry "R9C"
Result: 2.09

Request: # query: protein stability index of entry "P4K"
Result: 2.4

Request: # query: protein stability index of entry "H23M"
Result: 1.56

Request: # query: protein stability index of entry "H23I"
Result: 2

Request: # query: protein stability index of entry "F10I"
Result: 1.89

Request: # query: protein stability index of entry "P4L"
Result: 1.64

Request: # query: protein stability index of entry "Q24N"
Result: 1.62

Request: # query: protein stability index of entry "G8A"
Result: 1.25

Request: # query: protein stability index of entry "Q24S"
Result: 2.25

Request: # query: protein stability index of entry "F10G"
Result: 2.35

Request: # query: protein stability index of entry "Q24Y"
Result: 1.72

Request: # query: protein stability index of entry "V20C"
Result: 2.13
